Molecular target: p99 AmpC β-lactamase (Enterobacter cloacae, UniProt P05364)
Construct: expressed as native untagged proteins; made in house; host or cells: E. coli BL21(DE3)
Sequence (P05364 21-381): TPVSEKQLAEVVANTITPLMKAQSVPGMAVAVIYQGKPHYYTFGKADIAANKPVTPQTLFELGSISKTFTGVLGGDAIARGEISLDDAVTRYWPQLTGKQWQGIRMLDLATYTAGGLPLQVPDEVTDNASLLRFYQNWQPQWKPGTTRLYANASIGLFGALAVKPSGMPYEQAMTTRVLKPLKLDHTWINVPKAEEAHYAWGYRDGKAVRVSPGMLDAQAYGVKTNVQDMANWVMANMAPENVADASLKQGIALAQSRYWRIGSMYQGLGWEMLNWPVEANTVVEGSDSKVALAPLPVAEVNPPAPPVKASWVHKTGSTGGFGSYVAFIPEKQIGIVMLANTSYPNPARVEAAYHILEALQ
Experiment: β-lactamase enzyme inhibition assay (nitrocefin substrate), P99 AmpC
Assay type: biochemical
Details: nitrocefin 100 μM, 37° C., PBS pH 7.0; read-out: P99 AmpC IC50
value kind: log10 IC50 (log10 of the value in nM)
Each number you see is log10 of IC50, and the unit inside the log is nM.

The examples below pair each entry with its known result.
IN: Endpoint output: log10 IC50 of CN(C)Cc1ccc(CC(=O)N[C@@H](Cc2cccc(C(=O)O)c2O)B(O)O)cc1 [Example 36] . Value?
OUT: 0.30

IN: Endpoint output: log10 IC50 of NCCNCc1ccc(CC(=O)N[C@@H](Cc2cccc(C(=O)O)c2O)B(O)O)cc1 [Example 35] . Value?
OUT: 0.70

IN: Endpoint output: log10 IC50 of CC/C(=N/O)C(=O)N[C@@H](Cc1cccc(C(=O)O)c1O)B(O)O [Example 55] . Value?
OUT: -0.30

IN: Endpoint output: log10 IC50 of Cl.O=C(N[C@@H](Cc1cccc(C(=O)O)c1O)B(O)O)c1ccc(N2CCNCC2)nc1 [Example 9, hydrochloride] . Value?
OUT: 0.30

IN: Endpoint output: log10 IC50 of NCCNCc1cccc(C(=O)N[C@@H](Cc2cccc(C(=O)O)c2O)B(O)O)c1 [Example 18] . Value?
OUT: -0.52

New cases:
IN: Endpoint output: log10 IC50 of O=C(N[C@@H](Cc1cccc(C(=O)O)c1O)B(O)O)c1cccc(CNCc2cccnc2)c1 [Example 19] . Value?
OUT: -0.70

IN: Endpoint output: log10 IC50 of O=C(Cc1ccc(CN2CCCC2)cc1)N[C@@H](Cc1cccc(C(=O)O)c1O)B(O)O [Example 38] . Value?
OUT: 0.95

IN: Endpoint output: log10 IC50 of Br.CC(C)(O/N=C(\C(=O)N[C@@H](Cc1cccc(C(=O)O)c1O)B(O)O)c1csc(N)n1)C(=O)O [Example 48, hydrobromide] . Value?
OUT: 1.00

IN: Endpoint output: log10 IC50 of CCC(=O)C(=O)N[C@@H](Cc1cccc(C(=O)O)c1O)B(O)O [Example 56] . Value?
OUT: 0.30

IN: Endpoint output: log10 IC50 of O=C(N[C@@H](Cc1cccc(C(=O)O)c1O)B(O)O)c1cccc(CNc2cccnc2)c1 [Example 26] . Value?
OUT: -0.40

IN: Endpoint output: log10 IC50 of Cl.Nc1cc(C(=O)N[C@@H](Cc2cccc(C(=O)O)c2O)B(O)O)ccn1 [Example 8] . Value?
OUT: 0.30
